# Test system: His-hMAGL (recombinant polyhistidine tagged human MAGL protein) (Homo sapiens, UniProt Q99685)
# Construct: polyhistidine (His) (N); made in house; host or cells: E. coli BL21(DE3)
# Sequence (Q99685 whole entry): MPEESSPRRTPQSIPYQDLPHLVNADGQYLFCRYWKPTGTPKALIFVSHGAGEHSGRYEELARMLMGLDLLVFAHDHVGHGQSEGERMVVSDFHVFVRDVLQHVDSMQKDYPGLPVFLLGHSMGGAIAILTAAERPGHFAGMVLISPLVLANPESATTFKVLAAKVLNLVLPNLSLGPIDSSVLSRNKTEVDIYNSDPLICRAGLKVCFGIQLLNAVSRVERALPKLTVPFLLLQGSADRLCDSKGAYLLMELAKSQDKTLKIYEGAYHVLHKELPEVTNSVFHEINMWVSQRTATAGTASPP
# Method summary: Measurement of MAGL inhibitory activity (RapidFire-mass spectrometry of arachidonic acid produced from 2-arachidonylglycerol)
# Assay type: biochemical
# Condition details: test compound 10 μM; His-hMAGL; substrate 2-arachidonylglycerol; 60 min preincubation; read-out: % inhibition (10 μM)
Quantity kind: inhibition at 10 µM (%)
// return numeric value only (unit: %, not printed)

## Input Query inhibition at 10 µM for O=C1N[C@]2(CO1)C[C@H](C(=O)N1CC(/C=C(\F)c3ccc(C(F)(F)F)c(F)c3F)C1)C2
## Output 100

## Input Specify measured inhibition at 10 µM for O=C1N[C@]2(CO1)C[C@H](C(=O)N1CCC(COc3ccc(C(F)(F)F)cc3F)CC1)C2 .
## Output 101

## Input Could you please provide reported inhibition at 10 µM for CC(Oc1ccc(C(F)(F)F)cc1F)C1CN(C(=O)[C@H]2C[C@]3(COC(=O)N3)C2)C1 (some centres unmarked) ? Thanks!
## Output 100

## Input Please indicate inhibition at 10 µM recorded for CC(Oc1ccc(F)cc1F)C1CCN(C(=O)[C@H]2C[C@]3(COC(=O)N3)C2)CC1 (some centres unmarked)
## Output 100

## Input For the molecule CC1(C(F)(F)c2ccc(F)cc2Cl)CCN(C(=O)[C@H]2C[C@]3(COC(=O)N3)C2)CC1 , give its measured inhibition at 10 µM value.
## Output 100

## Input Give the measured inhibition at 10 µM for O=C1N[C@]2(CO1)C[C@H](C(=O)N1CC(COc3c(Cl)cc(F)cc3Cl)C1)C2
## Output 100

## Input State its inhibition at 10 µM for this molecule: Cc1cc(F)ccc1OC(C)C1CCN(C(=O)[C@H]2C[C@]3(COC(=O)N3)C2)CC1 (some centres unmarked)
## Output 100

## Input Supply recorded inhibition at 10 µM for O=C1N[C@]2(CO1)C[C@H](C(=O)N1CC(OCc3cc(F)c(C(F)(F)F)cc3F)C1)C2 here.
## Output 100

## Input Please report inhibition at 10 µM for the following molecule: Cc1cc(COC2CN(C(=O)[C@H]3C[C@]4(COC(=O)N4)C3)C2)c(F)cc1C(F)(F)F
## Output 100

## Input Output measured inhibition at 10 µM for this item: CC1(C2CCN(C(=O)[C@H]3C[C@]4(COC(=O)N4)C3)CC2)Cc2cc(F)ccc2O1 (some centres unmarked)
## Output 100

## Input Recall and state the measured inhibition at 10 µM for O=C1N[C@]2(CO1)C[C@H](C(=O)N1CC(OCc3cc(Cl)c(F)c(Cl)c3)C1)C2 .
## Output 100

## Input Tell me inhibition at 10 µM reported for O=C1N[C@]2(CO1)C[C@H](C(=O)N1CC(OCc3cc(C(F)(F)F)cc(C(F)(F)F)c3)C1)C2
## Output 100

## Input Tell me measured inhibition at 10 µM for O=C1N[C@]2(CO1)C[C@H](C(=O)N1CCC(C(F)(F)c3ccc(Cl)cc3Cl)CC1)C2 please.
## Output 100

## Input Tell me its inhibition at 10 µM given CC1(C2CCN(C(=O)[C@H]3C[C@]4(COC(=O)N4)C3)CC2)Cc2ccc(C(F)(F)F)cc2O1 (some centres unmarked) as the entry.
## Output 100

## Input Give inhibition at 10 µM for the following molecule: CC1(C2CCN(C(=O)[C@H]3C[C@]4(COC(=O)N4)C3)CC2)Cc2cc(F)cc(Cl)c2O1 (some centres unmarked)
## Output 101

## Input Entry CC(Oc1ccc(C(F)(F)F)cc1F)C1CCN(C(=O)[C@H]2C[C@]3(COC(=O)N3)C2)CC1 (some centres unmarked) needs its inhibition at 10 µM filled in; supply it.
## Output 101

## Input Output measured inhibition at 10 µM for this item: O=C1N[C@]2(CO1)C[C@H](C(=O)N1CC(COc3ccc(C(F)(F)F)cc3F)C1)C2
## Output 100

## Input Return reported inhibition at 10 µM. Input molecule: O=C1N[C@]2(CO1)C[C@H](C(=O)N1CC(OCc3ccc(C(F)(F)F)c(F)c3F)C1)C2
## Output 100

## Input Specify measured inhibition at 10 µM for Cc1cc(C(F)(F)F)ccc1COC1CN(C(=O)[C@H]2C[C@]3(COC(=O)N3)C2)C1 .
## Output 100

## Input Fill in reported inhibition at 10 µM for this entry: CC(Oc1c(F)ccc(F)c1F)C1CCN(C(=O)[C@H]2C[C@]3(COC(=O)N3)C2)CC1 (some centres unmarked)
## Output 101

## Input Give inhibition at 10 µM for O=C1N[C@]2(CO1)C[C@H](C(=O)N1CC(CC(F)(F)c3ccc(C(F)(F)F)cc3Cl)C1)C2
## Output 100

## Input Return reported inhibition at 10 µM. Input molecule: O=C1N[C@]2(CO1)C[C@H](C(=O)N1CC(OCc3ccc(C(F)(F)F)cc3F)C1)C2
## Output 100

## Input Fill in reported inhibition at 10 µM for this entry: O=C1N[C@]2(CO1)C[C@H](C(=O)N1CC(OCc3ccc(OC(F)(F)F)c(Cl)c3)C1)C2
## Output 100

## Input Please supply the value of reported inhibition at 10 µM for the item O=C1N[C@]2(CO1)C[C@H](C(=O)N1CCC(COc3ccc(F)cc3Cl)(C(F)(F)F)CC1)C2
## Output 100

## Input Return inhibition at 10 µM (reported value) for this molecule: O=C1N[C@]2(CO1)C[C@H](C(=O)N1CC(/C=C(\F)c3ccc(C(F)(F)F)c(Cl)c3)C1)C2
## Output 100

## Input Identify the reported inhibition at 10 µM for the following entry. O=C1N[C@]2(CO1)C[C@H](C(=O)N1CCC(C(c3ccccc3)c3ccccc3)CC1)C2
## Output 101

----------
# Test system: His-hMAGL (recombinant polyhistidine tagged human MAGL protein) (Homo sapiens, UniProt Q99685)
# Construct: polyhistidine (His) (N); made in house; host or cells: E. coli BL21(DE3)
# Method summary: Measurement of MAGL inhibitory activity (RapidFire-mass spectrometry of arachidonic acid produced from 2-arachidonylglycerol)
# Assay type: biochemical
# Condition details: test compound 10 μM; His-hMAGL; substrate 2-arachidonylglycerol; 60 min preincubation; read-out: % inhibition (10 μM)
Please respond with reported inhibition at 10 µM for every item in the list.
Give just the number in %; leave the unit off.

## Input Please supply the value of reported inhibition at 10 µM for the item Cc1ccc(OC(C)C2CCN(C(=O)[C@H]3C[C@]4(COC(=O)N4)C3)CC2)c(F)c1 (stereo partly shown) [Example 28]
## Output 100

## Input Please indicate inhibition at 10 µM recorded for O=C1N[C@]2(CO1)C[C@H](C(=O)N1CC(COc3cc(C4CC4)c(C(F)(F)F)cc3F)C1)C2 [Example 65]
## Output 101

## Input # return recorded inhibition at 10 µM for entry O=C1N[C@]2(CO1)C[C@H](C(=O)N1CC(OCc3ccc(C(F)(F)F)c(Cl)c3F)C1)C2 [Example 102]
## Output 100

## Input Specify measured inhibition at 10 µM for O=C1N[C@]2(CO1)C[C@H](C(=O)N1CCC(COc3ccc(CCF)cc3F)CC1)C2 [Example 64] .
## Output 101

## Input Look up inhibition at 10 µM of O=C1N[C@]2(CO1)C[C@H](C(=O)N1CCC(C3(C(F)(F)F)Cc4cc(F)ccc4O3)CC1)C2 (stereo partly shown) [Example 58] and report it.
## Output 100

## Input Look up and report measured inhibition at 10 µM for this entry: Cc1cc(OCC2CN(C(=O)[C@H]3C[C@]4(COC(=O)N4)C3)C2)c(F)cc1C(F)(F)F [Example 72]
## Output 101

## Input Using known records, supply inhibition at 10 µM for N#Cc1ccc(OCC2CCN(C(=O)[C@H]3C[C@]4(COC(=O)N4)C3)CC2)c(Cl)c1 [Example 130]
## Output 100

Reference source: patent US10323026B2
